- test-system: Alpha-1A adrenergic receptor (Homo sapiens, UniProt P35348)
- Sequence (P35348 whole entry): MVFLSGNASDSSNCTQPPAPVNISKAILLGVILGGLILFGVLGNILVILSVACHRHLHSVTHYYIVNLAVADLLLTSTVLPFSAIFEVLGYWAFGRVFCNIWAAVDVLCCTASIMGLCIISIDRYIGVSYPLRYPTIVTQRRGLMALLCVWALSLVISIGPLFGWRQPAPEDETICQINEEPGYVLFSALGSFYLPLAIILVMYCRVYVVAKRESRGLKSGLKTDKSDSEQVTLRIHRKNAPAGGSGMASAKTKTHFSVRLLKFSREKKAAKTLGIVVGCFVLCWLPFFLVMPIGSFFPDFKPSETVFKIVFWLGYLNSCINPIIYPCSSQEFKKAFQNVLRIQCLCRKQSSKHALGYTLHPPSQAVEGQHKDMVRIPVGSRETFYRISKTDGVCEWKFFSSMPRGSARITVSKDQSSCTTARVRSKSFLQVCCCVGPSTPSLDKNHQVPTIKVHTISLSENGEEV
- experiment-notes: Agonist potency against cloned human alpha 1A adrenoceptor expressed in rat-1 fibroblasts.
- Type: functional
pEC50: −log10 of the molar value.
Each entry below carries its reported pEC50.

Sample answers from the record:
smiles-string | reading
O=C(NC1CCC1)c1ccccc1NCC1=NCCN1 | < 5.30
O=C(NC1CCCC1)c1ccccc1NCC1=NCCN1 | < 5.30

Request: Which measured pEC50 value corresponds to `O=C(OC1CCCCC1)c1ccccc1NCC1=NCCN1` ?
Response: < 5.30

----------
- test-system: Alpha-1D adrenergic receptor (Homo sapiens)
- Sequence (P25100 whole entry): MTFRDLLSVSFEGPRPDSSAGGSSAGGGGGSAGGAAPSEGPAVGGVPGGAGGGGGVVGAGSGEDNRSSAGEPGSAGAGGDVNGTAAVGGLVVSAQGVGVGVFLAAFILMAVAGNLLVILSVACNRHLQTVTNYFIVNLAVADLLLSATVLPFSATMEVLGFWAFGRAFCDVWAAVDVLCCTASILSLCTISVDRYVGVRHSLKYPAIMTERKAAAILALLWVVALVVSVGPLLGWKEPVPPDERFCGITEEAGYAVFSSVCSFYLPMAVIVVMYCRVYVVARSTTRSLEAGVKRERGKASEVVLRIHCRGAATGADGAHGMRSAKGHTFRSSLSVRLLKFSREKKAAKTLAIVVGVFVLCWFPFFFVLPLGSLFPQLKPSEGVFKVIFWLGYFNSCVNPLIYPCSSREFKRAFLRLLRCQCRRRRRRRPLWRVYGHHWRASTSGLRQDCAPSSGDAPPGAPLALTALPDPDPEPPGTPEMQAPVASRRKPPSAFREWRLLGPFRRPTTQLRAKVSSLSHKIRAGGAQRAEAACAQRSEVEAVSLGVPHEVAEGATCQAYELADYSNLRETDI
- experiment-notes: Potency against cloned human alpha 1D-adrenoceptor expressed in rat-1 fibroblasts.
value-kind: EC50
Number first, unit second: that is the form wanted.

Worked set:
smiles-string | test-system | EC50
CCOC(=O)c1ccccc1NCC1=NCCN1 | Alpha-1D adrenergic receptor (Homo sapiens) | 63.1 nM
CCNC(=O)c1ccccc1NCC1=NCCN1 | Alpha-1D adrenergic receptor (Homo sapiens) | 79.4 nM

We next turn to a different molecule, shown below.
Request: Notebook entry, Alpha-1D adrenergic receptor (Homo sapiens) assay: EC50 of `CCCNC(=O)c1ccccc1NCC1=NCCN1` = ?
Response: 158 nM
